# protocol.notes: In vivo pharmacokinetics in rats
# Parameters: species or system rat
# conditions: male, Sprague-Dawley, rat, plasma, po, 50 mg/kg, Rat, PO, 50 mg kg^-1; read-out: t1/2 (converted)
# Method: For compound HSND19, male SD rats received an intravenous (IV) dose of 2 mg kg^−1 and an oral (PO) dose of 10 mg kg^−1. Both formulations were prepared in 10% DMSO/90% (20% HP-β-CD in water, w/w). […] The mean concentration-time profiles were analyzed using Phoenix WinNonlin (version 8.4; Certara USA, Inc., Princeton, NJ) to calculate standard PK parameters, including the area under the curve from zero to infinity (AUC), bioavailability (F), clearance, volume of distribution, and half-life (t1/2).
readout.label: half-life (h)
Give just the number in h; leave the unit off.

Which half-life value is on record for CN1CCN(Cc2ccc(NC(=O)c3cncc(C#Cc4cnc5cccnn45)c3)cc2C(F)(F)F)CC1 [HSN748] ? 4.26
